The measurements presented in this section are drawn from patent EP3653608A1.

Molecular target: CYP2D6 (Homo sapiens, UniProt P10635)
Sequence (P10635 whole entry): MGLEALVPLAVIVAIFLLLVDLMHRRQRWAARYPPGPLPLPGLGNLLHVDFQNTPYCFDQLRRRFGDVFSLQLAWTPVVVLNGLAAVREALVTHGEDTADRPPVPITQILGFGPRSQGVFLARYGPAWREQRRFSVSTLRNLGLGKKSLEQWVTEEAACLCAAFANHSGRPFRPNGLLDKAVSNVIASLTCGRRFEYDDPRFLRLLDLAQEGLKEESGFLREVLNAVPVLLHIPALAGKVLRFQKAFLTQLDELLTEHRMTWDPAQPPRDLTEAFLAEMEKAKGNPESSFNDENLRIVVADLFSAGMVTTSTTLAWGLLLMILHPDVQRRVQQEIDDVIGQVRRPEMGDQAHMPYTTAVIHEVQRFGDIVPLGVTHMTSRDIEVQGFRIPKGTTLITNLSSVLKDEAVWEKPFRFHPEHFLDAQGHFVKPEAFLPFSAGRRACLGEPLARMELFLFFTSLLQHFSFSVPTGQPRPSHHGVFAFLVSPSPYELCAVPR
Assay: in vitro
Settings: probe fluorogenic CYP substrate (not named)
measured.attribute: inhibition at 25 min, 10 µM

The reported inhibition at 25 min, 10 µM of the compound COc1cc2c(-c3cc(OC)c(OC)c(OC)c3)nccc2cc1O [A-1] was 13 to 19%

* * *

System: HeLa cell line
Experiment: Antiproliferative MTT assay, HeLa cell line
Format: cell-based
Settings: Homo sapiens, HeLa, 48 h
measured.attribute: IC50 (nM)
State just the number; it will be interpreted in nM.

Record COc1cc2c(-c3cc(OC)c(OC)c(OC)c3)nccc2cc1OP(=O)([O-])[O-].[Na+].[Na+] [A-2, phosphate] , field IC50: 130

* * *

Molecular target: CYP3A4 (Homo sapiens)
Sequence (P08684 whole entry): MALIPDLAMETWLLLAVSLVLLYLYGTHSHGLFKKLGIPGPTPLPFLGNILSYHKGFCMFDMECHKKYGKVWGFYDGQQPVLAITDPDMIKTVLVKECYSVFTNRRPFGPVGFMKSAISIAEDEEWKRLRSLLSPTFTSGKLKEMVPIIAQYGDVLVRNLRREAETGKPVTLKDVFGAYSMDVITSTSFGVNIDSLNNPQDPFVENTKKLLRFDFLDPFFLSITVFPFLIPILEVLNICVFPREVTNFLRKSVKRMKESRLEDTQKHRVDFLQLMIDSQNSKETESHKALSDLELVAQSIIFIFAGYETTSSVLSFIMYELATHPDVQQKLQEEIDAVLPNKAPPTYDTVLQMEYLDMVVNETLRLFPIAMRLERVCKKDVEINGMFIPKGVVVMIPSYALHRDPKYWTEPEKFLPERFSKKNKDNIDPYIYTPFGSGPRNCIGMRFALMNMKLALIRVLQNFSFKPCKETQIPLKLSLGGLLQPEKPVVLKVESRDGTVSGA
Assay: in vitro
Settings: probe fluorogenic CYP substrate (not named)
measured.attribute: inhibition at 25 min, 10 µM

For this molecule ( `COc1cc2c(-c3cc(OC)c(OC)c(OC)c3)nccc2cc1O` ), measured inhibition at 25 min, 10 µM is 13 to 19%

* * *

Assay: physchem
Details: pH 7.4
measured.attribute: logD

get_value(item= `COc1cc2c(-c3cc(OC)c(OC)c(OC)c3)nccc2cc1O` , readout=logD) returns 2.18
